Experiment: The drug is tested on Bacteroides thetaiotaomicron strain: DSM2079 for biotransformation under anaerobic condition. The drug concentrations were measured over 6 timepoints collected between 0 and 12 hours of incubation by liquid-chromatography-coupled mass spectrometry (LC–MS)
Type: ADME
Parameters: dose 5 uM, timepoint 0, 1.5, 3, 6, 9, 12 hours
Conditions: 5 µM
Property: Bacterial Biotransformation

Here is how some compounds turned out for Bacterial Biotransformation.
>>> readout_value("C[C@]12C=CC(=O)C=C1CC[C@@H]1[C@@H]2C(=O)C[C@@]2(C)[C@H]1CC[C@]2(O)C(=O)CO")
"Compound NOT metabolized"
>>> readout_value("COc1ccc([C@@H]2Sc3ccccc3N(CCN(C)C)C(=O)[C@@H]2OC(C)=O)cc1")
"Compound metabolized"
>>> readout_value("C[C@]12CCC(=O)C=C1CC[C@@H]1[C@@H]2[C@@H](O)C[C@@]2(C)[C@H]1CC[C@]2(O)C(=O)CO [HYDROCORTISONE]")
"Compound NOT metabolized"
>>> readout_value("CCC(C)(C)C(=O)O[C@H]1C[C@@H](C)C=C2C=C[C@H](C)[C@H](CC[C@@H]3C[C@@H](O)CC(=O)O3)[C@H]21")
"Compound metabolized"
>>> readout_value("CN(Cc1cnc2nc(N)nc(N)c2n1)c1ccc(C(=O)N[C@@H](CCC(=O)O)C(=O)O)cc1 [METHOTREXATE]")
"Compound NOT metabolized"

Specify measured Bacterial Biotransformation for CC(C)NCC(O)COc1ccc(CC(N)=O)cc1 (stereo not drawn) .
Compound NOT metabolized

Specify measured Bacterial Biotransformation for CNC(=C[N+](=O)[O-])NCCSCc1ccc(CN(C)C)o1 .
Compound NOT metabolized

Specify measured Bacterial Biotransformation for C[C@H]1C[C@@H]2[C@H]([C@@H](O)C[C@@]3(C)[C@H]2CC[C@]3(O)C(=O)CO)[C@@]2(C)C=CC(=O)C=C12 .
Compound NOT metabolized

Specify measured Bacterial Biotransformation for NS(=O)(=O)c1cc(C(=O)O)c(NCc2ccco2)cc1Cl [FUROSEMIDE] .
Compound NOT metabolized

Specify measured Bacterial Biotransformation for CCOc1nc2cccc(C(=O)O)c2n1Cc1ccc(-c2ccccc2-c2nnn[nH]2)cc1 .
Compound NOT metabolized

Specify measured Bacterial Biotransformation for CCOC(=O)C1=C(COCCN)NC(C)=C(C(=O)OC)C1c1ccccc1Cl (stereo not drawn) .
Compound NOT metabolized

Specify measured Bacterial Biotransformation for COc1c(C)c2c(c(O)c1C/C=C(\C)CCC(=O)OCCN1CCOCC1)C(=O)OC2 [MYCOPHENOLATE MOFETIL] .
Compound NOT metabolized

Specify measured Bacterial Biotransformation for Cn1cnc([N+](=O)[O-])c1Sc1ncnc2nc[nH]c12 .
Compound metabolized

====

Experiment: The drug is tested on Alloscardovia omnicolens strain: DSM21503 for biotransformation under anaerobic condition. The drug concentrations were measured over 6 timepoints collected between 0 and 12 hours of incubation by liquid-chromatography-coupled mass spectrometry (LC–MS)
Assay type: ADME
Set-up: dose 5 uM, timepoint 0, 1.5, 3, 6, 9, 12 hours
Details: 5 µM
Property: Bacterial Biotransformation

>>> readout_value("CCOC(=O)[C@H](CCc1ccccc1)N[C@@H](C)C(=O)N1[C@H](C(=O)O)C[C@@H]2CCC[C@@H]21")
"Compound NOT metabolized"
>>> readout_value("C=CC[C@@H]1/C=C(\\C)C[C@H](C)C[C@H](OC)[C@H]2O[C@@](O)(C(=O)C(=O)N3CCCC[C@H]3C(=O)O[C@H](/C(C)=C/[C@@H]3CC[C@@H](O)[C@H](OC)C3)[C@H](C)[C@@H](O)CC1=O)[C@H](C)C[C@@H]2OC.O")
"Compound NOT metabolized"

====

Assay: The drug is tested on Alloscardovia omnicolens strain: DSM21503 for biotransformation under anaerobic condition. The drug concentrations were measured over 6 timepoints collected between 0 and 12 hours of incubation by liquid-chromatography-coupled mass spectrometry (LC–MS)
Format: ADME
Parameters: dose 5 uM, timepoint 0, 1.5, 3, 6, 9, 12 hours
Settings: 5 µM
Property: Bacterial Biotransformation

Here is how some compounds turned out for Bacterial Biotransformation.
>>> readout_value("C[C@H]1C[C@H]2[C@@H]3CCC4=CC(=O)C=C[C@]4(C)[C@@]3(F)[C@@H](O)C[C@]2(C)[C@@]1(O)C(=O)CO")
"Compound NOT metabolized"
>>> readout_value("CCCC1O[C@@H]2C[C@H]3[C@@H]4CCC5=CC(=O)C=C[C@]5(C)[C@H]4[C@@H](O)C[C@]3(C)[C@]2(C(=O)CO)O1 (some centres not stated) [BUDESONIDE]")
"Compound NOT metabolized"
>>> readout_value("CCOc1nc2cccc(C(=O)O)c2n1Cc1ccc(-c2ccccc2-c2nnn[nH]2)cc1")
"Compound NOT metabolized"
>>> readout_value("NS(=O)(=O)c1cc(C(=O)O)c(NCc2ccco2)cc1Cl [FUROSEMIDE]")
"Compound NOT metabolized"
>>> readout_value("CCOC(=O)C1=C(COCCN)NC(C)=C(C(=O)OC)C1c1ccccc1Cl (configuration not stated)")
"Compound NOT metabolized"
>>> readout_value("CCC(C)(C)C(=O)O[C@H]1C[C@@H](C)C=C2C=C[C@H](C)[C@H](CC[C@@H]3C[C@@H](O)CC(=O)O3)[C@H]21")
"Compound NOT metabolized"

Consider the record given below.
Specify measured Bacterial Biotransformation for C[C@]12C=CC(=O)C=C1CC[C@@H]1[C@@H]2C(=O)C[C@@]2(C)[C@H]1CC[C@]2(O)C(=O)CO .
Compound NOT metabolized

====

Experiment: The drug is tested on Escherichia coli strain: DSM27469 for biotransformation under anaerobic condition. The drug concentrations were measured over 6 timepoints collected between 0 and 12 hours of incubation by liquid-chromatography-coupled mass spectrometry (LC–MS)
Format: ADME
Set-up: dose 5 uM, timepoint 0, 1.5, 3, 6, 9, 12 hours
Settings: 5 µM
Property: Bacterial Biotransformation

>>> readout_value("C[C@@H](NCCCc1cccc(C(F)(F)F)c1)c1cccc2ccccc12")
"Compound NOT metabolized"
>>> readout_value("CCC(C)(C)C(=O)O[C@H]1C[C@@H](C)C=C2C=C[C@H](C)[C@H](CC[C@@H]3C[C@@H](O)CC(=O)O3)[C@H]21")
"Compound NOT metabolized"
>>> readout_value("COc1c(C)c2c(c(O)c1C/C=C(\\C)CCC(=O)O)C(=O)OC2")
"Compound NOT metabolized"

====

Assay: The drug is tested on the gut metagenome community of A-09 with ENA study accession number: PRJEB31790 for biotransformation under anaerobic condition. The drug concentrations were measured over 7 timepoints collected between 0 and 12 hours of incubation by liquid-chromatography-coupled mass spectrometry (LC–MS)
Format: ADME
Set-up: dose 5 uM, timepoint 0, 0.75, 1.5, 3, 6, 9, 12 hours
Conditions: 5 µM
Property: Bacterial Biotransformation

Here is how some molecules turned out for Bacterial Biotransformation.
>>> readout_value("COc1c(C)c2c(c(O)c1C/C=C(\\C)CCC(=O)O)C(=O)OC2")
"Compound NOT metabolized"
>>> readout_value("CCOc1nc2cccc(C(=O)O)c2n1Cc1ccc(-c2ccccc2-c2nnn[nH]2)cc1")
"Compound NOT metabolized"
>>> readout_value("CCOC(=O)[C@H](CCc1ccccc1)N[C@@H](C)C(=O)N1[C@H](C(=O)O)C[C@@H]2CCC[C@@H]21")
"Compound NOT metabolized"
>>> readout_value("CN(Cc1cnc2nc(N)nc(N)c2n1)c1ccc(C(=O)N[C@@H](CCC(=O)O)C(=O)O)cc1 [METHOTREXATE]")
"Compound metabolized"
>>> readout_value("C=CC[C@@H]1/C=C(\\C)C[C@H](C)C[C@H](OC)[C@H]2O[C@@](O)(C(=O)C(=O)N3CCCC[C@H]3C(=O)O[C@H](/C(C)=C/[C@@H]3CC[C@@H](O)[C@H](OC)C3)[C@H](C)[C@@H](O)CC1=O)[C@H](C)C[C@@H]2OC.O")
"Compound metabolized"
>>> readout_value("CC(C)NCC(O)COc1ccc(CC(N)=O)cc1 (configuration not stated)")
"Compound NOT metabolized"

Consider the record given below.
Specify measured Bacterial Biotransformation for NS(=O)(=O)c1cc(C(=O)O)c(NCc2ccco2)cc1Cl [FUROSEMIDE] .
Compound NOT metabolized

====

Test: The drug is tested on the gut metagenome community of A-07 with ENA study accession number: PRJEB31790 for biotransformation under anaerobic condition. The drug concentrations were measured over 7 timepoints collected between 0 and 12 hours of incubation by liquid-chromatography-coupled mass spectrometry (LC–MS)
Type: ADME
Set-up: dose 5 uM, timepoint 0, 0.75, 1.5, 3, 6, 9, 12 hours
Conditions: 5 µM
Property: Bacterial Biotransformation

Here is how some molecules turned out for Bacterial Biotransformation.
>>> readout_value("C[C@@H]1C[C@H]2[C@@H]3CCC4=CC(=O)C=C[C@]4(C)[C@@]3(F)[C@@H](O)C[C@]2(C)[C@@]1(O)C(=O)CO")
"Compound metabolized"
>>> readout_value("NS(=O)(=O)c1cc(C(=O)O)c(NCc2ccco2)cc1Cl [FUROSEMIDE]")
"Compound NOT metabolized"
>>> readout_value("C=CC[C@@H]1/C=C(\\C)C[C@H](C)C[C@H](OC)[C@H]2O[C@@](O)(C(=O)C(=O)N3CCCC[C@H]3C(=O)O[C@H](/C(C)=C/[C@@H]3CC[C@@H](O)[C@H](OC)C3)[C@H](C)[C@@H](O)CC1=O)[C@H](C)C[C@@H]2OC.O")
"Compound metabolized"
>>> readout_value("CO[C@H]1C[C@@H]2CC[C@@H](C)[C@@](O)(O2)C(=O)C(=O)N2CCCC[C@H]2C(=O)O[C@H]([C@H](C)C[C@@H]2CC[C@@H](OCCO)[C@H](OC)C2)CC(=O)[C@H](C)/C=C(\\C)[C@@H](O)[C@@H](OC)C(=O)[C@H](C)C[C@H](C)/C=C/C=C/C=C/1C")
"Compound metabolized"
>>> readout_value("CCOC(=O)C1=C(COCCN)NC(C)=C(C(=O)OC)C1c1ccccc1Cl (configuration not stated)")
"Compound NOT metabolized"

Specify measured Bacterial Biotransformation for C[C@@H](NCCCc1cccc(C(F)(F)F)c1)c1cccc2ccccc12 .
Compound NOT metabolized

Specify measured Bacterial Biotransformation for C[C@]12CCC(=O)C=C1CC[C@@H]1[C@@H]2[C@@H](O)C[C@@]2(C)[C@H]1CC[C@]2(O)C(=O)CO [HYDROCORTISONE] .
Compound metabolized
